Target: T1, PD-L1 on 293T cells (UniProt Q9NZQ7 19-290)
T1 construct: whole, on cells; also called PD-L1-293T; 293T-PD-L1 cells
T1 sequence (Q9NZQ7 19-290 limits assumed): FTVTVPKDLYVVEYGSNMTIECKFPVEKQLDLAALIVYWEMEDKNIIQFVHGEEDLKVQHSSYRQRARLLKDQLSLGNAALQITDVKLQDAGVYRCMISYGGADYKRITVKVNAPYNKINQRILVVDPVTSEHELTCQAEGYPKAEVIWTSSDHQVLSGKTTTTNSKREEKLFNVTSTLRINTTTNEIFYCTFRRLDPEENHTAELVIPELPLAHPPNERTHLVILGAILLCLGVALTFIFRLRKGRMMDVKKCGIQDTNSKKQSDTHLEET
Experiment: flow cytometry on PD-L1-293T cells
In this section we review reported EC50 values for a set of binders.
measurement_type: EC50 (µg/mL)

INSERT INTO measurements (binder, measurement_type, u, value_reported) VALUES
  ('m4A8 (antibody, V domains shown, Murine hybridoma IgG (printed ''mIgG''); also called 4A8-mIgG; 4A8 murine) VH: QVQLKQSGPGLVQPSQSLSITCTVSGFSLTSYGVHWVRQSPGKGLEWLGVIWSGGITDYNAAFKSRLSISKDNSKSQVFFKMNSLQANDTAIYFCARLGFYAMDYWGQGTSVTVSS VL: QIVLTQSPAIMSASPGEKVTMTCSANSSVSYMHWYQQKSGTSPKRWIYDTSKLASGVPARFSGSGSGTSYSLTISSMGAEDAATYYCQQWSSNPWTFGGGTKLEIK', 'EC50', 'µg/mL', 0.0678),
  ('m7B4 (antibody, V domains shown, Murine hybridoma IgG (printed ''mIgG''); also called 7B4-mIgG; 7B4 murine) VH: EVKLFESGGGLVQPGGSLKLSCVASGFDFSTYWMHWVRQAPGQGLEWIGQINPDSTTINYAPSLKDRFIISRDNAKNTLFLQMSKVRSEDTALYYCAKPGDYGYDFDCWGQGTTLTVSS VL: DVLMTQTPLYLPVSLGDQASISCRSSQIIVHSNANTYLEWFLQKPGQSPKLLIYKVSNRFSGVPDRFSGSGSGTDFTLKISRVEAEDLGVYYCFQGSHVPYTFGGGTKLEIK', 'EC50', 'µg/mL', 0.0474),
  ('m13C5 (antibody, V domains shown, Murine hybridoma IgG (printed ''mIgG''); also called 13C5-mIgG; 13C5 murine) VH: EVKLVESGGGLVKPGGSLKLSCAASGFIFRSYGMSWVRQTPEKRLEWVASISSGGSTYYPDSVKGRFTISRDNARNILYLQMSSLRSEDTAMYDCARGYDSGFAYWGQGTLVTVSE VL: DIVLTQSPASLAVSLGQRATISCRASQSVSTSSSSFMHWYQQKPGQPPKLLIKYASNLESGVPARFSGSGSGTDFTLNIHPVEEEDTATYYCQHSWEIPYTFGGGTKLEIKR', 'EC50', 'µg/mL', 0.0453);
